Some molecules, each annotated with its measured viability increase.
- protocol text: viability gain of MRP-1-high H69AR cells under doxorubicin, pilot screen, MRP-1 activator project, CellTiter-Glo, duplicate (AID 807);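 also: compound pretreatment 18-22 h then 72 h combined with doxorubicin; 0% = doxorubicin alone and 100% = vehicle without doxorubicin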
- reported conditions: H69AR viability with doxorubicin, CellTiter-Glo luminescence; at 10 µM; active compounds read high
Report the value in % with no unit label.

# molecule, readout kind, readout number
rows = [
    ("O=C(Cn1cc2c(n1)CCCC2)NCc1cccc(Cl)c1", "viability increase", -0.45),
    ("C#CCn1c(=NC(=O)CN2C(=O)CCC2=O)sc2cccc(C)c21", "viability increase", -3.32),
    ("CCc1ccc2nc(NC3=NCN(CCOC)CN3)nc(C)c2c1", "viability increase", -2.81),
]

Cn1c(=O)c2cc(S(=O)(=O)NC(C(=O)NCc3cccnc3)c3ccccc3)ccc2n(C)c1=O (stereo unspecified) has a reported viability increase of -1.54

Record `CCN1CCN(C(=O)C2CCN(Cc3nc(-c4cccc(Cl)c4)oc3C)CC2)CC1` . Reported viability increase: -4.04

# viability increase (molecule: `CCc1ncc(C(=O)c2ccc(OC)cc2)n1C` ) is 3.42

Sourced from PubChem BioAssay
